Source listed as paper PMC9775652.

- MEASUREMENT NOTES: Transport (permeability) of ginsenosides in CaCo-2 cell monolayers
- Format: in vitro ADME
- TEST CONDITIONS: human, Caco-2
- Protocol: CaCo-2 cells (passage no 41–43) were seeded onto collagen-coated permeable support (1.0 μm pore size) in a 24-well plate at a density of 2.5 × 10^4 cells/insert and cultured for 21 days in Dulbecco’s modified eagle’s medium supplemented with 10% fetal bovine serum, 1% non-essential amino acids, and 1% penicillin-streptomycin at 37 °C in a humidified atmosphere (5% CO2/95% air). […]
MEASURED PARAMETER: Papp A→B at 50 µM

[
  {
    "COMPOUND": "CC(C)=CCCC(C)(OC1OC(CO)C(O)C(O)C1O)C1CCC2(C)C1C(O)CC1C3(C)CCC(OC4OC(CO)C(O)C(O)C4O)C(C)(C)C3CCC12C (centres unmarked)",
    "MEAS VALUE": "< 0.3 ×10⁻⁶ cm/s"
  },
  {
    "COMPOUND": "CC(C)=CCCC(C)(OC1OC(CO)C(O)C(O)C1O)C1CCC2(C)C1C(O)CC1C3(C)CCC(O)C(C)(C)C3C(O)CC12C (centres unmarked)",
    "MEAS VALUE": "< 0.3 ×10⁻⁶ cm/s"
  }
]

* * *

- MEASUREMENT NOTES: Transport (permeability) of ginsenosides in CaCo-2 cell monolayers
- Assay type: in vitro ADME
- TEST CONDITIONS: human, Caco-2, CaCo-2 cell monolayers, 50 µM; B to A Papp divided by A to B Papp; read-out: Efflux ratio (ER)
MEASURED PARAMETER: efflux ratio at 50 µM

[
  {
    "MOLECULE": "CC(C)=CCC[C@](C)(O)[C@H]1CC[C@]2(C)[C@@H]1[C@H](O)C[C@@H]1[C@@]3(C)CC[C@H](O[C@@H]4O[C@H](CO)[C@@H](O)[C@H](O)[C@H]4O)C(C)(C)[C@@H]3CC[C@]12C [GRh2, ginsenoside Rh2]",
    "MEAS VALUE": 2.3
  }
]

* * *

- TESTED SYSTEM: P-gp (Homo sapiens)
- Construct: host or cells: LLC-PK1-P-gp cells (passage no. 25–28)
- Sequence (P08183 whole entry): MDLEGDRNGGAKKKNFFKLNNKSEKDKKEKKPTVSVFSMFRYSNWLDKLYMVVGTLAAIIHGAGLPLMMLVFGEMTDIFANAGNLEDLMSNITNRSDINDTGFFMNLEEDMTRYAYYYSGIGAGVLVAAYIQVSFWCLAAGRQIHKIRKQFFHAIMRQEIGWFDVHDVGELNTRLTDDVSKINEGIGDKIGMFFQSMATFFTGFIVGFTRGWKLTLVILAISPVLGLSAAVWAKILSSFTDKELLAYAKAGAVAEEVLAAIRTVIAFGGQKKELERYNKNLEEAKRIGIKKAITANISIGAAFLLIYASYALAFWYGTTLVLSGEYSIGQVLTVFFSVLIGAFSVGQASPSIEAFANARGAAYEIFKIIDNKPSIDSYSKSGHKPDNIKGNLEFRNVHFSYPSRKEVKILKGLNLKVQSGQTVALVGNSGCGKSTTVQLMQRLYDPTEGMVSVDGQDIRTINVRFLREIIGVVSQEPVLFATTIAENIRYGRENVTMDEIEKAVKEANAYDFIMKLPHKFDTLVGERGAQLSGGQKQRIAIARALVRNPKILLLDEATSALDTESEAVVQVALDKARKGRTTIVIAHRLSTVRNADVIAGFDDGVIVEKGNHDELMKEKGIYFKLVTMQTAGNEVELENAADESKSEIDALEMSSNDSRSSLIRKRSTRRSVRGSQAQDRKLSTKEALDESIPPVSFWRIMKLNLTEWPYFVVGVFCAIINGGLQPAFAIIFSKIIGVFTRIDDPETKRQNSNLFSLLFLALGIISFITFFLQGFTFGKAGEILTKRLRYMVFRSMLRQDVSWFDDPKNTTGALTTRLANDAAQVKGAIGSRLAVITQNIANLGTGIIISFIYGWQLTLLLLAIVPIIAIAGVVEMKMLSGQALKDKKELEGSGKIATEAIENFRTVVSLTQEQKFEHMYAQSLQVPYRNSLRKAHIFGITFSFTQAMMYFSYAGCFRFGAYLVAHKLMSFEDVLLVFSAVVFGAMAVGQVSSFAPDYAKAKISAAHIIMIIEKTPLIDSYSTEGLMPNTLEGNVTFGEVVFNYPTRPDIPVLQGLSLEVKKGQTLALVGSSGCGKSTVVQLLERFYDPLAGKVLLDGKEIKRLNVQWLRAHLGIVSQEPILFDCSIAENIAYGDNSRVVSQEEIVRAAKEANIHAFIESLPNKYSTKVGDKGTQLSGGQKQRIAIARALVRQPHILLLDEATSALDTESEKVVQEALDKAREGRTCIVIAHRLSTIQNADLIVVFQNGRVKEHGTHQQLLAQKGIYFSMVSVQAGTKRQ
- MEASUREMENT NOTES: Transport of ginsenosides in P-gp-overexpressing LLC-PK1-P-gp cells
- Assay type: in vitro ADME
- TEST CONDITIONS: pig, LLC-PK1, ER
MEASURED PARAMETER: efflux ratio at 20 μM

[
  {
    "MOLECULE": "CC(C)=CCCC(C)(O)C1CCC2(C)C1C(O)CC1C3(C)CCC(O)C(C)(C)C3C(O)CC12C (stereo not shown) [PPT, 20(s)-protopanaxatriol]",
    "MEAS VALUE": 2.7
  }
]

* * *

The entries below are paired with their reported Tmax.
- MEASUREMENT NOTES: Pharmacokinetic study of ginsenosides in healthy humans after repeated oral RGE with or without LAB
- Type: in vivo, human
- TEST CONDITIONS: male, human, in vivo, po, Tmax
MEASURED PARAMETER: Tmax (h)

[
  {
    "MOLECULE": "CC(C)=CCCC(C)(O)C1CCC2(C)C1C(O)CC1C3(C)CCC(O)C(C)(C)C3CCC12C (stereo not drawn) [PPD, 20(s)-protopanaxadiol]",
    "UNIT DESCRIPTOR": "h",
    "MEAS VALUE": 16
  },
  {
    "MOLECULE": "CC(C)=CCCC(C)(O)C1CCC2(C)C1C(O)CC1C3(C)CCC(O)C(C)(C)C3C(O)CC12C (stereo not drawn) [PPT, 20(s)-protopanaxatriol]",
    "UNIT DESCRIPTOR": "h",
    "MEAS VALUE": 17.4
  },
  {
    "MOLECULE": "CC(C)=CCCC(C)(OC1OC(CO)C(O)C(O)C1O)C1CCC2(C)C1C(O)CC1C3(C)CCC(O)C(C)(C)C3CCC12C (stereo not drawn)",
    "UNIT DESCRIPTOR": "h",
    "MEAS VALUE": 8
  }
]

* * *

- MEASUREMENT NOTES: Pharmacokinetic study of ginsenosides in healthy humans after repeated oral RGE with or without LAB
- Assay type: in vivo, human
- TEST CONDITIONS: male, in vivo, 104.1 mg total ginsenosides/day; RGE group; human plasma, RGE oral 14 days; mean ± SD, n = 5; read-out: Cmax
- Experimental: A single-sequence study consisting of two periods was conducted on five healthy male subjects (body weight > 50 kg and age > 19 years) for 29 days. […] The quantification of ginsenosides was carried out using multiple reaction monitoring in positive ionization mode, as previously described. Finally, pharmacokinetic parameters were calculated using non-compartmental methods (WinNonlin version 5.1; Pharsight Co., Certara, NJ, USA). […]
MEASURED PARAMETER: Cmax (ng/mL)

[
  {
    "COMPOUND": "CC(C)=CCC[C@](C)(O)[C@H]1CC[C@]2(C)[C@@H]1[C@H](O)C[C@@H]1[C@@]3(C)CC[C@H](O[C@@H]4O[C@H](CO)[C@@H](O)[C@H](O)[C@H]4O)C(C)(C)[C@@H]3CC[C@]12C [GRh2, ginsenoside Rh2]",
    "UNIT DESCRIPTOR": "ng/mL",
    "MEAS VALUE": 2.1
  }
]

* * *

- MEASUREMENT NOTES: Pharmacokinetic study of ginsenosides in healthy humans after repeated oral RGE with or without LAB
- Type: in vivo, human
- TEST CONDITIONS: male, in vivo, 104.1 mg total ginsenosides/day; RGE group; human plasma, RGE oral 14 days; mean ± SD, n = 5; read-out: Tmax
MEASURED PARAMETER: Tmax (h)

[
  {
    "COMPOUND": "CC(C)=CCC[C@](C)(O)[C@H]1CC[C@]2(C)[C@@H]1[C@H](O)C[C@@H]1[C@@]3(C)CC[C@H](O[C@@H]4O[C@H](CO)[C@@H](O)[C@H](O)[C@H]4O)C(C)(C)[C@@H]3CC[C@]12C [GRh2, ginsenoside Rh2]",
    "MEASURED PARAMETER": "Tmax",
    "MEAS VALUE": 10.7
  }
]

* * *

- MEASUREMENT NOTES: Pharmacokinetic study of ginsenosides in healthy humans after repeated oral RGE with or without LAB
- Assay type: in vivo, human
- TEST CONDITIONS: male, human, plasma, po, RGE + LAB group; human plasma, oral 14 days; mean ± SD, n = 5; read-out: Tmax
MEASURED PARAMETER: Tmax (h)

[
  {
    "MOLECULE": "CC(C)=CCC[C@](C)(O[C@@H]1O[C@H](CO[C@@H]2O[C@H](CO)[C@@H](O)[C@H](O)[C@H]2O)[C@@H](O)[C@H](O)[C@H]1O)[C@H]1CC[C@]2(C)[C@@H]1[C@H](O)C[C@@H]1[C@@]3(C)CC[C@H](O[C@@H]4O[C@H](CO)[C@@H](O)[C@H](O)[C@H]4O[C@@H]4O[C@H](CO)[C@@H](O)[C@H](O)[C@H]4O)C(C)(C)[C@@H]3CC[C@]12C [GRb1, ginsenoside Rb1]",
    "MEASURED PARAMETER": "Tmax",
    "MEAS VALUE": 6.8
  }
]

* * *

- MEASUREMENT NOTES: Pharmacokinetic study of ginsenosides in healthy humans after repeated oral RGE with or without LAB
- Assay type: in vivo, human
- TEST CONDITIONS: male, human, plasma, po, RGE + LAB group; human plasma, oral 14 days; mean ± SD, n = 5; read-out: MRT

[
  {
    "COMPOUND": "CC(C)=CCC[C@](C)(O[C@@H]1O[C@H](CO[C@@H]2O[C@H](CO)[C@@H](O)[C@H](O)[C@H]2O)[C@@H](O)[C@H](O)[C@H]1O)[C@H]1CC[C@]2(C)[C@@H]1[C@H](O)C[C@@H]1[C@@]3(C)CC[C@H](O[C@@H]4O[C@H](CO)[C@@H](O)[C@H](O)[C@H]4O[C@@H]4O[C@H](CO)[C@@H](O)[C@H](O)[C@H]4O)C(C)(C)[C@@H]3CC[C@]12C [GRb1, ginsenoside Rb1]",
    "MRT / h": 16.9
  }
]

* * *

- MEASUREMENT NOTES: Transport (permeability) of ginsenosides in CaCo-2 cell monolayers
- Assay type: in vitro ADME
- TEST CONDITIONS: human; CaCo-2 cell monolayers, 50 µM ginsenoside; read-out: A to B Papp

[
  {
    "COMPOUND": "CC(C)=CCC[C@](C)(O[C@@H]1O[C@H](CO[C@@H]2O[C@H](CO)[C@@H](O)[C@H](O)[C@H]2O)[C@@H](O)[C@H](O)[C@H]1O)[C@H]1CC[C@]2(C)[C@@H]1[C@H](O)C[C@@H]1[C@@]3(C)CC[C@H](O[C@@H]4O[C@H](CO)[C@@H](O)[C@H](O)[C@H]4O[C@@H]4O[C@H](CO)[C@@H](O)[C@H](O)[C@H]4O)C(C)(C)[C@@H]3CC[C@]12C [GRb1, ginsenoside Rb1]",
    "Papp A→B at 50 µM": "< 0.3 ×10⁻⁶ cm/s"
  },
  {
    "COMPOUND": "CC(C)=CCCC(C)(OC1OC(CO)C(O)C(O)C1O)C1CCC2(C)C1C(O)CC1C3(C)CCC(O)C(C)(C)C3C(OC3OC(CO)C(O)C(O)C3O)CC12C (stereo not drawn)",
    "Papp A→B at 50 µM": "< 0.3 ×10⁻⁶ cm/s"
  },
  {
    "COMPOUND": "CC(C)=CCCC(C)(O)C1CCC2(C)C1C(O)CC1C3(C)CCC(O)C(C)(C)C3C(OC3OC(CO)C(O)C(O)C3O)CC12C (stereo not drawn)",
    "Papp A→B at 50 µM": "< 0.3 ×10⁻⁶ cm/s"
  }
]
